- testedOn: T1, DcR3 (UniProt O95407 30-300, limits assumed)
- T1 construct: the construct is not described; also called decoy receptor DcR3; TNFRSF6B
- T1 sequence (looked up): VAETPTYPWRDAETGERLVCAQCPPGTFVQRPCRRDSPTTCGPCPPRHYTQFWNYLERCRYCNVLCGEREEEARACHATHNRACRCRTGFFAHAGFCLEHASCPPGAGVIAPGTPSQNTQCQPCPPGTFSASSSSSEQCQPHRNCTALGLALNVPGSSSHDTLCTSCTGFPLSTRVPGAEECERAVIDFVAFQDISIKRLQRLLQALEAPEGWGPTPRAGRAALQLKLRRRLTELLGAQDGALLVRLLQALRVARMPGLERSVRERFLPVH
- assayNotes: ELISA, DcR3
reportedMetric: Rel EC50

Worked cases, answers included:
binder: TL1W82 (His-TEV-TL1A K111E) (ligand, also called TL1W82 (K111E)) HHHHHHENLYFQGLKGQEFAPSHQQVYAPLRADGDKPRAHLTVVRQTPTQHFENQFPALHWEHELGLAFTKNRMNYTNKFLLIPESGDYFIYSQVTFRGMTSECSEIRQAGRPNKPDSITVVITKVTDSYPEPTQLLMGTKSVCEVGSNWFQPIYLGAMFSLQEGDKLMVNVSDISLVDYTKEDKTFFGAFLL
Rel EC50: 2.3 ratio (head: nM)

binder: TL1W119 (His-TEV-TL1A S206F) (ligand, also called TL1W119 (S206F)) HHHHHHENLYFQGLKGQEFAPSHQQVYAPLRADGDKPRAHLTVVRQTPTQHFKNQFPALHWEHELGLAFTKNRMNYTNKFLLIPESGDYFIYSQVTFRGMTSECSEIRQAGRPNKPDSITVVITKVTDSYPEPTQLLMGTKSVCEVGFNWFQPIYLGAMFSLQEGDKLMVNVSDISLVDYTKEDKTFFGAFLL
Rel EC50: 1.8 ratio (head: nM)

Then there is this binder:
Reported Rel EC50 for TL1W96 (His-TEV-TL1A R170E) (ligand, also called TL1W96 (R170E)) HHHHHHENLYFQGLKGQEFAPSHQQVYAPLRADGDKPRAHLTVVRQTPTQHFKNQFPALHWEHELGLAFTKNRMNYTNKFLLIPESGDYFIYSQVTFRGMTSECSEIRQAGEPNKPDSITVVITKVTDSYPEPTQLLMGTKSVCEVGSNWFQPIYLGAMFSLQEGDKLMVNVSDISLVDYTKEDKTFFGAFLL was 3.6 ratio (head: nM)

Cited source for all entries: patent US20220056104A1
